All figures here come from the nanobody polyreactivity screen of Harvey et al. (2022).

Test: yeast display, Sf9 membrane polyspecificity reagent, FACS + sequencing; frameworks hold sequencing errors
MEASURE: polyreactivity (PSR sort gate)

Some solved cases for reference:
{"SEQUENCE_INPUT": "QVQLVESGGGLVQAGGSLRLSCAASGSIFRPNAMGWYRQAPGKEREFVASISGRVGSTYYADSVKGRFTISRDNAKNTVYLQMYSLKPEDTAVYYCAADSRGGYKRNYWGQGTQVTVSS", "RESULT": "high polyreactivity"}
{"SEQUENCE_INPUT": "QVQLVESGGGLVQAGGSLRLSCAASGFTFYRYAMGWYRQAPGKERELVAAITSRSGITYYADSVKGRFTISRDNAKNTVYLQMNSLKPEDTAVYYCGAYVSRSTEFDYGYWGQGTQVTVSS", "RESULT": "high polyreactivity"}
{"SEQUENCE_INPUT": "QVQLVESGGGLVQAGGSLRLSCAASGRTFRLYAMGWYRQAPGKERELVAAITRGGRTNYADSVKGRFTISRDNAKNTVYLQMNSLKPEDTAVYYCAARYVEGHPDYYYWGQGTQVTVSS", "RESULT": "low polyreactivity"}
{"SEQUENCE_INPUT": "QVQLVESGGCLVQAGGSLRLSCAASGRSLTDYAMGWYRKAPGKERELVAAISRSGGSTYYADSVKGRFTISRDHAKNTVYLQMNSLKTEDTAVYYCAAGTPKRVGGGYWGQCTQVTVSS", "RESULT": "high polyreactivity"}

Okay, next one:
Query :: Give its polyreactivity (PSR sort gate) value. Item: QVQLVESGGGLVQAGGSLRLSCAASGSTLNYYAMGWYRQAPGKEWELVAAITWSGGSTSYADSVKGRFTISRDNAKNTVYLQMNSLKPEDTAVYYCATDFPTVQLYDTDWLSSDMGYWGQGTQVTVSS
Result :: low polyreactivity

---

Experiment: yeast display, Sf9 membrane polyspecificity reagent, FACS + sequencing; frameworks hold sequencing errors

{"SEQUENCE_INPUT": "QVQIVESGGGLVQAGGSLRLSCAASGFTFRGYAMGCYRQAPAKERELVAAISRSGGSTNYADSVKGRFTISRDNAKNTVYLKMNSMKPEDTAVYYCAAGWNPYDYWGQGTQVTVSS", "polyreactivity (PSR sort gate)": "high polyreactivity"}
{"SEQUENCE_INPUT": "QVQLVESGGGLVQAGGSLRLSCAASGSIFYENVMGWYRQAPGKERELVAGISRSGGRTYYADSVKGRFTISRDNAKNTVYLQMNSLIPEDTAVYYCNAARVYLSEWGQGTQVTVSS", "polyreactivity (PSR sort gate)": "high polyreactivity"}

---

Assay: yeast display, Sf9 membrane polyspecificity reagent, FACS + sequencing; frameworks hold sequencing errors
MEASURE: polyreactivity (PSR sort gate)

{"SEQUENCE_INPUT": "QVQLVESGAGLVQAGGRLRLSCAPSGSTFIYNAMGWYRQAPGKERELVASITGGTSTNYADSVKGRFTISRDNAKNTVYLQMNSLKPEDTAVYYCAAVWVWGEYDYWGQGTQVTVSS", "MEASURE": "polyreactivity (PSR sort gate)", "RESULT": "low polyreactivity"}
{"SEQUENCE_INPUT": "QVKLVDSGGGLVQAGGSLRLSCAASGSIFGAYAMGWYRQAHGKERELVAPITLRDGSTYYADSVKGRFTISRDNAKNTVYLQLNSLKPEDTAVYYCATYYSAINYGWSKTILYDYWGQGTQVTVSS", "MEASURE": "polyreactivity (PSR sort gate)", "RESULT": "low polyreactivity"}
{"SEQUENCE_INPUT": "QVQHEESGGGIVQAGGSLRLSSAASGRTFKYYDMGWFRQALGKERELVATISSSDSTNYADSVKGRFTISRDNAKNTVYLQLNSLKPEDTAVYYCNADFKLIYVFDYWGQGSQVTVSS", "MEASURE": "polyreactivity (PSR sort gate)", "RESULT": "high polyreactivity"}
{"SEQUENCE_INPUT": "QVQLVESGGGLVQAGGSLRLSCAASGRIFDGYAMGWYRQAPGKEWELVASISDDGGSTYYADSVKGRFTISRDNEQNTVYLQLNSLKPDDTAVYYCAAVYRRRSYSFYYWGHGTQVTVSS", "MEASURE": "polyreactivity (PSR sort gate)", "RESULT": "high polyreactivity"}

Now for the sequence whose polyreactivity (PSR sort gate) we want.
Query :: So what's the measured polyreactivity (PSR sort gate) for this one? QVQLVESGGGLVQAGGSLRLSCAASGRTFNYYAMGWYRQAPGKERELVAAISWSGTPTYYADSVKGRFTISRDHAKNTVYLQMNSLKPEDTAVYYCAAYLVSYPRGNYIRYDYWGQGTQVTVSS
Result :: low polyreactivity

---

Test: yeast display, Sf9 membrane polyspecificity reagent, FACS + sequencing; frameworks hold sequencing errors

{"SEQUENCE_INPUT": "QVQLVESGGGLVQAGGSLRLSCAASGRIFSYYAMGWYRQAPGKEREMVAAISGNGGSTYYADSVKGRFTISRDNAKNTVYLQMNSLKPEDTAVYYCAADWWSSDWAYLYPYSYDYWGQGTQVTVSS", "polyreactivity (PSR sort gate)": "low polyreactivity"}
{"SEQUENCE_INPUT": "QVQLVESGGGLVQAGGSLRLSCAASGSIFWWYAMGWYRQAPGKERELVAAIRWSGTTTFYADSLKGRFTISRDNAKNNVFLQMKSLKPEDTAVYYCNAEGGIWGVTSGYDYWGQGTQVTVSS", "polyreactivity (PSR sort gate)": "low polyreactivity"}

---

Assay: yeast display, Sf9 membrane polyspecificity reagent, FACS + sequencing; frameworks hold sequencing errors
MEASURE: polyreactivity (PSR sort gate)

Example results:
{"SEQUENCE_INPUT": "QVQLVESGGGLVQAGGSLRLICAASGNIFAYYAMGWYRQAPGKERELVAGISRRAGNTYYADSVTGRFTISRDNAKNTVYLHMNSLKREDTAFYYCNKYTKRSGMDYWGQGTQVTVSS", "MEASURE": "polyreactivity (PSR sort gate)", "RESULT": "high polyreactivity"}
{"SEQUENCE_INPUT": "QVQLVESGGGLVQAGGSLRLSCAASGSIFITNAMGWYRQAPGKERELVATITDSGGSTYYADSVKGRFTISRDNAKNTVYLQMNSLKPEDTAVYYGAKDRVYLTRVYHYDYWGQGTQVTVSS", "MEASURE": "polyreactivity (PSR sort gate)", "RESULT": "low polyreactivity"}
{"SEQUENCE_INPUT": "QVQLVESGGGLVQAGGSLRLSCAASGITFVPYAMGWDRQAPGKERELVAAISSSGGSTYYADSVKGRFTISRDNAKNTVYLQMNSLKPEDTAVYYCNVRTHSYIGMDYWGQGTQVTVSS", "MEASURE": "polyreactivity (PSR sort gate)", "RESULT": "low polyreactivity"}
{"SEQUENCE_INPUT": "QVQLVESGGGLVQAGGSLRLSCAASGRIFPTNAMGWYRQAPGKERELVASIDSGGSTKYADSVKGRFTISRDNAKNTVDLQMNSLKPEDTTVYYRALQVLNYDYWGQGTQVTVSS", "MEASURE": "polyreactivity (PSR sort gate)", "RESULT": "low polyreactivity"}

Query :: // query polyreactivity (PSR sort gate) value for entry QVQLVESGGGLVQAGGSLRLSCAASGFTFYGYVMGWSRQAPGKERDLVAAITRGGNTYYADSVKGRITISRDNAKNTVYLQMNSLKPEDTAVYYCARDRSYWDKPRQRDGYWGQGTQVTVSS
Result :: low polyreactivity

Query :: Thanks! And QVQLVESGGGLVQAGGSLRLSCAASGRTFRNAMGWYRQAPGKEREFVATITWSGGSTYYADSVKGRFTISRDNAKNTVYLQMNSLKPEDTAVYYCAAEGRLWDWQRYDYWGQGTQVTVSS ?
Result :: low polyreactivity

Query :: Query QVQLVESGGGLVQAGGSLRLSCAASGRIFGPYAMGWYRQAPGKDRELVASISYSGGSTYYADSVKGRFTISRDKAKNTVYLQMNSLKPEDTAVYYCDKAGYWRGYNYWGQGTQVTVSS next
Result :: low polyreactivity

Query :: Query QVQLVESGGGLVQAGGSLRLSCAASGGTFSRNAMGWYRQAPGKERELVAAINTSGVSTSYADSVKGRFTISRDNAKNTVYLQMNSLKPEDTAVYYCAAETSSAEVDYWGQGTQVTVSS next
Result :: low polyreactivity

Query :: Record: QVQLVESGGGLVQAGGSLRLSCAASGRIYTMGWYRQAPGKERELVAAISKSGGSTSYADSVKGRFTISRDNAKNTVYLQMNSLKPEDTAVYYCAALHYGRYRMDYWGQGTQVTVSS
Result :: high polyreactivity

Query :: Again, but for QVQLVESGGGLVQAGGRLRLSCAASGSTFVRYAMGWYRQAPGKERELVAAISSSGATTYYADSVKGRFTISRDNAKNTVYLQMNSLKPEDTAVYYCAKYGRATRGLDNYWGQGTQVTVSS
Result :: high polyreactivity

Query :: Next entry: QVQLVESGGGLVQAGGSLRLSCAASGSTFVTNDMGWYRQAPGKESELVAAISSGTSTNYADSVKGRFTISRDNAKNTVYLQMNSLKPEDTAVYYCAADSLKRYDYWGQGTQVTVSS
Result :: low polyreactivity
